Quick list: Percent Effect per entry.
- Tested on: Wolbachia pipientis
- Assay protocol: Anti-Wolbachia Cell-Based Screen
- Format: functional
- Set-up: scale not given: in the data most compounds retested in dose-response had high values
- Test settings: 5 µM
About 13,000 (27%) of roughly 48,000 compounds showed an effect of 50% or more. The list shows a part of the results.
Entry rule: numbers only, all in %.

What the record says about CS(=O)(=O)NC[C@]12COC[C@H]1CN(C(=O)C1CCSCC1)C2 : Percent Effect is 57.64

---

- System: Wolbachia pipientis
- Assay protocol: Anti-Wolbachia Cell-Based Screen
- Format: functional
- Set-up: scale not given: in the data most compounds retested in dose-response had high values
- Test settings: 5 µM
The whole screen tested about 48,000 compounds, of which about 13,000 (27%) showed an effect of 50% or more. The list shows a part of the results.
Readout kind: Percent Effect (%)
Give a bare numeral; the unit % is implied.

// known answers, use as guide
C/C=C(\C)CN(CCN1CCOCC1)Cc1ccco1; 118.7
OC(COc1ccccc1)CN1CCC(c2ccn[nH]2)CC1 (stereo unspecified); 2.003
OC(CN1CCC(c2ccn[nH]2)CC1)c1ccc(F)cc1 (stereo unspecified); 112.6
N#Cc1ccnc(N2CCN(CC(O)c3ccc(F)cc3F)CC2)c1 (stereo unspecified); -23.85
CS(=O)(=O)c1ccc(C(O)CN2CCC(c3ccn[nH]3)CC2)cc1 (stereo unspecified); -3.645
OC(CN1CCC(c2ccn[nH]2)CC1)c1ccccc1F (stereo unspecified); 96.43
CN(C)CCN1CCOCC2(C1)CN(Cc1ccco1)CCO2.O=C(O)C(F)(F)F.O=C(O)C(F)(F)F.O=C(O)C(F)(F)F (stereo unspecified); 27
CC(C(=O)NCc1ccc(F)cc1)N(C)CCN1CCOCC1 (stereo unspecified); 8.931

For this compound ( OC(CN1CCC(c2ccn[nH]2)CC1)c1ccc(F)cc1F (stereo unspecified) ), measured Percent Effect is 102.6

Query OC(CN1CCC(c2ccn[nH]2)CC1)c1cccc(C(F)(F)F)c1 (stereo unspecified) yields Percent Effect of 117.8

Recorded Percent Effect (compound OCC(O)CN(CCN1CCOCC1)Cc1ccco1 (stereo unspecified) ): 99.07

---

- Test system: Wolbachia pipientis
- Assay protocol: Anti-Wolbachia Cell-Based Screen
- Type: functional
- Design: scale not given: in the data most compounds retested in dose-response had high values
- Test settings: 5 µM
In all, about 48,000 compounds went through this assay and about 13,000 (27%) showed an effect of 50% or more. Some of the results follow.
Reported Percent Effect by item:
Expressed in %, but write only the number.

Worked cases, Percent Effect given:
Cc1noc(NCc2cn(C)nc2-c2cccnc2)n1; 76.51
CC(O)CN1CCC(CN(C)Cc2cc(F)cc3cccnc23)CC1 (stereo unspecified); -9.016
Cc1ccccc1[C@@H]1CN(CCCS(=O)(=O)N(C)C)C[C@H]1C(=O)O; -19.2

CN(CCc1ccccn1)c1cc(N2CCCCC2)ncn1 yielded Percent Effect of -10.66

The compound listed as CS(=O)(=O)CCSc1cccc(C#N)c1 has a reported Percent Effect of -1.405

// Percent Effect lookup, compound = CS(=O)(=O)CCCSCc1cc(F)cc(Br)c1 , result: -17.62

Notebook: COc1ccc(Br)cc1Cn1nc(C(N)=O)ccc1=O , Percent Effect read as 5.156

Reported Percent Effect ( CN(C)c1cc(N2CCN(c3ccccn3)CC2)ncn1 ) = 109.8
